System: Rattus norvegicus
assay protocol: Anticonvulsant activity in SwissRattus norvegicus albino (rat) assessed as protection against pentamethylene tetrazole-induced seizures at 5 mg/kg, ip administered for 15 min prior to pentamethylene tetrazole induction relative to placebo
Type: functional, Swiss albino
condition notes: route intraperitoneal
observation type: Activity (%)
Numbers only here, please. The scale is %.

compound structure string: Cc1c(C(=O)NNC(N)=S)[nH]c(/C=C/c2ccc([N+](=O)[O-])cc2)c1C(=O)NNC(N)=S
Activity, %: 0
//
compound structure string: Cc1c(C(=O)NNC(N)=S)[nH]c(/C=C/c2ccc(N(C)C)cc2)c1C(=O)NNC(N)=S
Activity, %: 21

Incoming: Look at this compound and give its reported Activity. "COc1ccc(/C=C/c2[nH]c(C(=O)NNC(N)=S)c(C)c2C(=O)NNC(N)=S)cc1"
Outgoing: 0

* * *

Tested on: Rattus norvegicus
assay protocol: Anticonvulsant activity in SwissRattus norvegicus albino (rat) assessed as protection against pentamethylene tetrazole-induced seizures at 5 mg/kg, ip administered for 15 min prior to pentamethylene tetrazole induction relative to placebo
Type: functional, Swiss albino
condition notes: route intraperitoneal
Below, each of the compounds is paired with its reported Activity value.
The reply should be a number in %, with the unit left off.

Known results for compounds:
compound structure string: Cc1c(C(=O)NNC(N)=S)[nH]c(/C=C/c2ccc(Cl)cc2)c1C(=O)NNC(N)=S
Activity / %: 19

compound structure string: Cc1c(C(=O)NNC(N)=S)[nH]c(/C=C/c2ccc(O)cc2)c1C(=O)NNC(N)=S
Activity / %: 0

Now for the compound whose Activity we want.
Incoming: Entry "Cc1c(C(=O)NNC(N)=S)[nH]c(/C=C/c2ccccc2)c1C(=O)NNC(N)=S" , system Rattus norvegicus: what Activity was measured?
Outgoing: 33
